- ASSAY NOTES: Solubility in buffers, HPLC of mother liquors (Tables 12 and 13)
- Assay type: physicochemical
- SETTINGS: pH 10 buffer, 25 °C, aqueous buffer, thermodynamic from solid; pH 10; Final pH 9.82; Final XRD Freebase Form 1; read-out: Solubility Concentration

CHEMICAL STRUCTURE	UNITS	solubility at 25 h
Nc1nccc(Sc2cnc(N3CCC4(CC3)Cc3ccccc3[C@H]4N)nn2)c1Cl	µg/mL	0.17

----------
- ASSAY NOTES: Solubility in buffers, HPLC of mother liquors (Tables 12 and 13)
- Format: physicochemical
- SETTINGS: 25 °C, thermodynamic from solid; Water; Final pH 5.01; Final XRD Succinate Form 1; read-out: Solubility Concentration
- Description: Upon addition of the buffer solutions, the samples were vortexed. The samples were rotated at 40° C. for 8 hours, 15° C. for 5 hours, and 25° C. for 12 hours in an Envirogenie thermomixer. After the thermomixing cycle, the slurries were isolated by centrifugation filtration and the isolated mother liquors were analyzed by HPLC. HPLC method (Tables 12 and 13): An Agilent 1290 UPLC instrument was used with a Waters XSelect HSS T3 Column (100 angstrom, 4.6×150 mm, 5 μm). […]

COMPOUND	UNITS	solubility at 25 h
Nc1nccc(Sc2cnc(N3CCC4(CC3)Cc3ccccc3[C@H]4N)nn2)c1Cl [Example 3]	µg/mL	8180

----------
- ASSAY NOTES: Solubility in buffers, HPLC of mother liquors (Tables 12 and 13)
- Type: physicochemical
- SETTINGS: pH 6 phosphate buffer, 25 °C, aqueous buffer, thermodynamic from solid; pH 6; Final pH 5.37; Final XRD Freebase Form 1; read-out: Solubility Concentration

CHEMICAL STRUCTURE	solubility at 25 h
Nc1nccc(Sc2cnc(N3CCC4(CC3)Cc3ccccc3[C@H]4N)nn2)c1Cl	597 µg/mL

----------
- ASSAY NOTES: Solubility in buffers, HPLC of mother liquors (Tables 12 and 13)
- Format: physicochemical
- SETTINGS: pH 8 buffer, 25 °C, aqueous buffer, thermodynamic from solid; pH 8; Final pH 7.78; Final XRD Freebase Form 1; read-out: Solubility Concentration

COMPOUND	solubility at 25 h (µg/mL)
Nc1nccc(Sc2cnc(N3CCC4(CC3)Cc3ccccc3[C@H]4N)nn2)c1Cl [Example 3]	2.66

----------
- ASSAY NOTES: TGA/DSC of salts (Table 14)
- Type: physicochemical
- SETTINGS: 10° C./min
- Experimental: TGA/DSC (Table 14): Approximately, 5-10 mg of material was added into a pre-tared open aluminum pan and loaded into a TA Instruments Discovery SDT 650 Auto—Simultaneous DSC and held at room temperature. The sample was then heated at a rate of 10° C./min from 20° C. (ambient) to 400° C. during which time the change in sample weight was recorded along with the heat flow response (DSC). Nitrogen was used as the sample purge gas, at a flow rate of 200 cm3/min. […]
Reported TGA/DSC Melt/degradation values are given for each entry in this list.

COMPOUND	TGA/DSC Melt/degradation, °C
Nc1nccc(Sc2cnc(N3CCC4(CC3)Cc3ccccc3[C@H]4N)nn2)c1Cl.O=C(O)/C=C/C(=O)O	225.7
Nc1nccc(Sc2cnc(N3CCC4(CC3)Cc3ccccc3[C@H]4N)nn2)c1Cl	197.3
Nc1nccc(Sc2cnc(N3CCC4(CC3)Cc3ccccc3[C@H]4N)nn2)c1Cl.O=P(O)(O)O [Example 4]	100
Nc1nccc(Sc2cnc(N3CCC4(CC3)Cc3ccccc3[C@H]4N)nn2)c1Cl.O=C(O)C(O)C(O)C(=O)O	187
Nc1nccc(Sc2cnc(N3CCC4(CC3)Cc3ccccc3[C@H]4N)nn2)c1Cl.O=P(O)(O)O [Example 5]	174

Data provenance: patent US20250214966A1
